Cited source: ChEMBL document CHEMBL4321881

molecular target: Isocitrate dehydrogenase [NADP] cytoplasmic (Homo sapiens, UniProt O75874, R132C); assay: Inhibition of IDH1 R132C mutant in human HCT116 cells assessed as reduction in 2-HG levels after 24 hrs by RapidFire high-throughput mass spectrometry assay; format: cell-based
Sequence (O75874 whole entry R132C): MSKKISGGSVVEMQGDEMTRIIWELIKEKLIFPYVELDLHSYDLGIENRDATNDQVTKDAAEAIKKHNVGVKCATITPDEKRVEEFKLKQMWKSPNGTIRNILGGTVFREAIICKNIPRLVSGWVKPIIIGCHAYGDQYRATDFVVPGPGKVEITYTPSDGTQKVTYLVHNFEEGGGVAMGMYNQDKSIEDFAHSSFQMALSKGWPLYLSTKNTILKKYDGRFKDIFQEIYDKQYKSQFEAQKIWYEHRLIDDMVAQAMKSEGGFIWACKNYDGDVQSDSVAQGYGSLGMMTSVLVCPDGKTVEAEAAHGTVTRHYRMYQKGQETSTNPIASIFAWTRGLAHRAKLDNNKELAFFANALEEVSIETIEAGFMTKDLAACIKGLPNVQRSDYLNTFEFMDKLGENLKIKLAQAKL
Property Measured: IC50

- Test Smiles: "C[C@H](Nc1ccc(C#N)n(C)c1=O)c1cc2cc(Cl)c(F)cc2[nH]c1=O"
  Test Value: "0.104 µM"

###

assay: Solubility of the compound; format: physicochemical
# solubility listing for each entry below

- Molecule: "C[C@H](Nc1ccc(C#N)n(C)c1=O)c1cc2cc(Cl)c(OCc3ccccn3)cc2[nH]c1=O"
  solubility: "2.5 µM"
- Molecule: "Cn1cccc(NCc2cc3cc(Cl)ccc3[nH]c2=O)c1=O"
  solubility: "54 µM"
- Molecule: "CCn1cccc(NCc2cc3cc(Cl)ccc3[nH]c2=O)c1=O"
  solubility: "10 µM"
- Molecule: "Cn1c(C(F)(F)F)ccc(NCc2cc3cc(Cl)ccc3[nH]c2=O)c1=O"
  solubility: "< 0.1 µM"
- Molecule: "N#Cc1ccc(NCc2cc3cc(Cl)ccc3[nH]c2=O)c(=O)[nH]1"
  solubility: "2.21 µM"
- Molecule: "C[C@H](Nc1ccc(C#N)n(C)c1=O)c1cc2cc(Cl)ccc2[nH]c1=O"
  solubility: "34.5 µM"
- Molecule: "COc1cc2[nH]c(=O)c([C@H](C)Nc3ccc(C#N)n(C)c3=O)cc2cc1Cl"
  solubility: "11.6 µM"
- Molecule: "COc1cccc(NCc2cc3cc(Cl)ccc3[nH]c2=O)c1"
  solubility: "0.28 µM"
- Molecule: "CN1CCCC(NCc2cc3cc(Cl)ccc3[nH]c2=O)C1=O (centres undefined)"
  solubility: "94 µM"
- Molecule: "O=c1[nH]c2ccc(Cl)cc2cc1CNc1cccn(C2CC2)c1=O"
  solubility: "56 µM"
- Molecule: "C[C@H](Nc1ccc(C#N)n(C)c1=O)c1cc2cc(Cl)c(F)cc2[nH]c1=O"
  solubility: "18 µM"
- Molecule: "C[C@H](Nc1ccc(C#N)n(C)c1=O)c1cc2cc(Cl)c(O[C@H](C)c3ccccn3)cc2[nH]c1=O"
  solubility: "1.6 µM"
- Molecule: "C[C@H](Nc1ccc(C#N)n(C)c1=O)c1cc2cc(Cl)c(OCC3CC3)cc2[nH]c1=O"
  solubility: "0.53 µM"
- Molecule: "Cn1c(C#N)ccc(NCc2cc3cc(Cl)ccc3[nH]c2=O)c1=O"
  solubility: "0.295 µM"

###

experiment: Metabolic stability in mouse liver microsomes assessed as parent compound remaining after 30 mins; assay type: ADME, Microsome; details: read-out: Stability
I'd appreciate it if you marked entries rule met when remaining at 0.5 h is lower than 70% and rule not met when it is not.

- Compound: "O=c1[nH]c2ccc(Cl)cc2cc1CNc1cccn(C2CC2)c1=O"
  Assigned Class: "rule met"
- Compound: "Cn1c(C(F)(F)F)ccc(NCc2cc3cc(Cl)ccc3[nH]c2=O)c1=O"
  Assigned Class: "rule met"
- Compound: "CN1CCCC(NCc2cc3cc(Cl)ccc3[nH]c2=O)C1=O (centres undefined)"
  Assigned Class: "rule not met"
- Compound: "CCn1cccc(NCc2cc3cc(Cl)ccc3[nH]c2=O)c1=O"
  Assigned Class: "rule met"
- Compound: "COc1cccc(NCc2cc3cc(Cl)ccc3[nH]c2=O)c1"
  Assigned Class: "rule met"
- Compound: "Cn1cccc(NCc2cc3cc(Cl)ccc3[nH]c2=O)c1=O"
  Assigned Class: "rule met"
- Compound: "Cn1c(C#N)ccc(NCc2cc3cc(Cl)ccc3[nH]c2=O)c1=O"
  Assigned Class: "rule not met"
- Compound: "C[C@H](Nc1ccc(C#N)n(C)c1=O)c1cc2cc(Cl)ccc2[nH]c1=O [OLUTASIDENIB]"
  Assigned Class: "rule not met"
- Compound: "N#Cc1ccc(NCc2cc3cc(Cl)ccc3[nH]c2=O)c(=O)[nH]1"
  Assigned Class: "rule not met"

###

# pIC50 listing for each entry below
target: Isocitrate dehydrogenase [NADP] cytoplasmic (Homo sapiens, UniProt O75874, R132H); assay: Inhibition of recombinant human Myc-DDK-tagged IDH1 R132H mutant using alpha-ketoglutarate as substrate preincubated for 15 mins followed by substrate and NADPH addition and measured after 45 mins by diaphorase/resazurin dye based assay
Sequence (O75874 2-414 R132H limits assumed): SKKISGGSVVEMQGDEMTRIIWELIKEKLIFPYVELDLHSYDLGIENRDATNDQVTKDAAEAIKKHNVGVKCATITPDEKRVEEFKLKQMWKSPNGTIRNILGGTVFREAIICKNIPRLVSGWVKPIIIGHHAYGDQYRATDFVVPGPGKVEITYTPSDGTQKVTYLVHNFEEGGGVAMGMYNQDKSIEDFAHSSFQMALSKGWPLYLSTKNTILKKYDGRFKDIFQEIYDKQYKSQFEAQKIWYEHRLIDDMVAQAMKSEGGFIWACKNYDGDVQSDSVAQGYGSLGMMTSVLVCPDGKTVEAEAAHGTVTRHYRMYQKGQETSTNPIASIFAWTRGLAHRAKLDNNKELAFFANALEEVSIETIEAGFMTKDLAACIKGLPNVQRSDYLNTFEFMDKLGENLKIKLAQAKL
pIC50: −log10 of the molar value.
Property Measured: pIC50

- Compound: "N#Cc1ccc(NCc2cc3cc(Cl)ccc3[nH]c2=O)c(=O)[nH]1"
  Tested Target: "Isocitrate dehydrogenase [NADP] cytoplasmic (Homo sapiens, UniProt O75874, R132H)"
  Property Measured: "pIC50"
  Qualifier Symbol: "="
  Test Value: 7.19
- Compound: "Cn1c(C(F)(F)F)ccc(NCc2cc3cc(Cl)ccc3[nH]c2=O)c1=O"
  Tested Target: "Isocitrate dehydrogenase [NADP] cytoplasmic (Homo sapiens, UniProt O75874, R132H)"
  Property Measured: "pIC50"
  Qualifier Symbol: "="
  Test Value: 6.80
- Compound: "C[C@H](Nc1ccc(C#N)n(C)c1=O)c1cc2cc(Cl)c(F)cc2[nH]c1=O"
  Tested Target: "Isocitrate dehydrogenase [NADP] cytoplasmic (Homo sapiens, UniProt O75874, R132H)"
  Property Measured: "pIC50"
  Qualifier Symbol: "="
  Test Value: 7.60
- Compound: "COc1cccc(NCc2cc3cc(Cl)ccc3[nH]c2=O)c1"
  Tested Target: "Isocitrate dehydrogenase [NADP] cytoplasmic (Homo sapiens, UniProt O75874, R132H)"
  Property Measured: "pIC50"
  Qualifier Symbol: "<"
  Test Value: 4.60
- Compound: "CN1CCCC(NCc2cc3cc(Cl)ccc3[nH]c2=O)C1=O (stereo not given)"
  Tested Target: "Isocitrate dehydrogenase [NADP] cytoplasmic (Homo sapiens, UniProt O75874, R132H)"
  Property Measured: "pIC50"
  Qualifier Symbol: "="
  Test Value: 4.60

###

test: Metabolic stability in human liver microsomes assessed as parent compound remaining after 30 mins; assay type: ADME, Microsome; details: read-out: Stability

- Test Smiles: "O=c1[nH]c2ccc(Cl)cc2cc1CNc1cccn(C2CC2)c1=O"
  remaining at 0.5 h: "78%"
- Test Smiles: "C[C@H](Nc1ccc(C#N)n(C)c1=O)c1cc2cc(Cl)c(OCC3CC3)cc2[nH]c1=O"
  remaining at 0.5 h: "82%"
- Test Smiles: "COc1cccc(NCc2cc3cc(Cl)ccc3[nH]c2=O)c1"
  remaining at 0.5 h: "78%"
